The reader will find reported TGI values listed item by item below.
- Test system: 786-0 renal
- assay-notes: NCI tumour cell line growth inhibition, 48 h
measurement-kind: TGI

>>> experimental_value("CCOC1NC(=O)Oc2cc3ccccc3cc21 (stereo unspecified)")
"> 100 µM"
>>> experimental_value("C=C(C)[C@H]1C2=CC(C)=C(O2)[C@@H](O)[C@H](C(=C)C)CCC2=C[C@H]1OC2=O")
"> 100 µM"
>>> experimental_value("CCCCCCCCCCCCCCCCCCNC(=S)/N=C/c1c(O)c2ccccc2[nH]c1=O")
"29.8 µM"
>>> experimental_value("Cc1ccc(NC(=O)/C(Cc2cc(=O)oc3cc(O)ccc23)=N\\NC(C)(C)C)cc1C")
"> 100 µM"
>>> experimental_value("C[C@H]1COCCN1c1cc(C2(S(=O)(=O)C3CC3)CC2)nc(-c2ccc(NC(=S)NCCO)cc2)n1")
"3.49 µM"
>>> experimental_value("CCN(CC)c1ccc(/C=C2\\CCc3ccc([N+](=O)[O-])cc3C2=O)cc1")
"> 100 µM"
>>> experimental_value("CCCCCCCC/C=C1\\CCC(CN2CCOCC2)C1=O (stereo unspecified)")
"3.07 µM"
>>> experimental_value("O=C(O)/C(=C\\c1ccc(O)cc1)c1cccc2ccccc12")
"> 100 µM"
>>> experimental_value("Cc1ccc(S(=O)(=O)N/N=C2\\CC3CC4CCC2C4C3)cc1 (stereo unspecified)")
"> 100 µM"
>>> experimental_value("Cc1cc(S(=O)(=O)Nc2nncn2-c2ccc(Cl)cc2)c(S)cc1Cl")
"> 10 µM"
>>> experimental_value("COc1ccc(/C(C#N)=C/c2cc(OC)c(OC)c(OC)c2)cc1")
"> 100 µM"
